Target: AMP-activated protein kinase, AMPK (Homo sapiens) (UniProt P54646+O43741+P54619+Q9UGJ0+Q9Y478+Q13131+Q9UGI9)
Test: AMP-dependent Kinase enzyme assay. An in vitro enzyme assay that detects ADP turnover that is directly proportional to AMPK activity. This uses naive AMPK that is activated during the assay with MK-8722
Type: functional
Parameters: scale not given: direction of the effect not stated beside the values
Settings: 30 µM

compound | measurement-unit | Percent Effect
CCc1noc(C(C)N2CCN(c3ccc(C#N)cn3)CC2)n1 (centres undefined) | % | 4.88
COc1ccc(CN(C)C(=O)CCc2c(C)nc(C)[nH]c2=O)cc1OC | % | -3.92
O=C1OC2(CCN(C3CCCOC3)CC2)CN1CCc1ccccc1 (centres undefined) | % | -6.88
CCc1ccc(C(=O)O)cc1S(=O)(=O)Nc1ccc(F)c(C#N)c1 | % | -11.6
CC(C)(C)c1cnc(CN2CCC(c3ccnn3CCO)CC2)o1 | % | 7.52
O=C(c1cccnc1-n1cncn1)N1CCN(CC2CC2)CC1 | % | -2.56
Cc1cccc(-c2nc(C)nn2CC(=O)NC2CCCC2)c1 | % | -6.06
CN(Cc1ccc(N2CCCCC2)cc1)Cc1noc(C(C)(C)C)n1 | % | -0.29
CCc1nc(C2CCCN2Cc2nnc(Cc3ccccc3)o2)no1 (centres undefined) | % | 2.23
Cc1ccc(NC(=O)c2n[nH]c(-n3cnnc3)n2)cc1C | % | -5.75
O=C(NCc1ccccc1CN1CCC(O)CC1)Nc1cccnc1 | % | -1.33
O=C(c1ccc2c(c1)CCC2)N1C[C@@H](CN2CCOCC2)[C@@H](CO)C1 | % | 1.02
COc1cc(C)nc(N2CCN(C(=O)c3ccc(Cl)o3)CC2)n1 | % | -4.07
Cc1cnn(CCNCC(=O)NCc2ccccc2)c1 | % | -2.33
